experiment: folding enthalpy; higher = less favourable; fluorescence melt of hairpins on a sequencing array, two-state fit; details: sodium 0.088 M
Catalogue of sequences with associated folding enthalpy
Attribute measured: folding enthalpy

> print(dat)
                                 seq.text  endpoint.result
 1  GTGGAAACGAAAGTTCAC (((..(((....))))))   -19.5 kcal/mol
 2    GGATATCGAAAGATTCC (((.(((....))))))   -25.9 kcal/mol
 3  GCGTTGCGAAAGCCTCGC (((..((....))..)))   -18.5 kcal/mol
 4      GATCAAGTGCTTGATC ((((((....))))))   -41.2 kcal/mol
 5  GCATTTCGAAAGAACTGC (((.(((....))).)))   -32.1 kcal/mol
 6              GCGTCACGACGC ((((....))))   -31.7 kcal/mol
 7  GTGGAACGAAAGTTGCAC (((.(((....))).)))   -40.3 kcal/mol
 8  CGGCTCGGAAACGATCCG (((.(((....))).)))   -44.5 kcal/mol
 9      GATCAGATCGCTGATC ((((((....))))))   -28.2 kcal/mol
10      GATCACAATGGTGATC ((((((....))))))   -35.1 kcal/mol
11        GATCGGGTGCCGATC ((((((...))))))   -49.1 kcal/mol
12      GATCCGGTACCGGATC ((((((....))))))   -43.4 kcal/mol
13  GAATGCGAAAGCACTTTC ((((((....)))..)))   -10.4 kcal/mol
14      GTACTAGAAATAGTAC ((((((....))))))   -27.2 kcal/mol
15  GCCCTCGGAAACGAGAGC ((.((((....)))).))   -27.2 kcal/mol
16  GTTGTACCGAAAGGTAAC (((..(((....))))))   -23.7 kcal/mol
17  GTATTCGGAAACGAATGC (.(((((....))))).)   -29.1 kcal/mol
18      GATCAAACCATTGATC ((((((....))))))   -31.2 kcal/mol
19      GATCTCGGGCGAGATC ((((((....))))))   -30.4 kcal/mol
20              GCGATTTGTCGC ((((....))))   -23.5 kcal/mol
21  GTGAAATCGAAAGATCAC (((..(((....))))))     -17 kcal/mol
22  GGCATTACGAAAGTAGCC (((..(((....))))))   -21.8 kcal/mol
23  GGTCTGCCGAAAGGCACC (((..(((....))))))   -6.75 kcal/mol
24      GATCGTGAGGACGATC ((((((....))))))   -34.1 kcal/mol
25    GACATGCGAAAGCAGTC (((.(((....))))))   -16.9 kcal/mol
26  GACTTCCGAAAGGATGTC (((.(((....))).)))   -40.7 kcal/mol
27  GTAATAGCGAAAGCTTAC (((..(((....))))))   -12.6 kcal/mol
28      GATCAGCAAACTGATC ((((((....))))))     -32 kcal/mol
29      GATCCTTGTGAGGATC ((((((....))))))     -38 kcal/mol
30  GTCACCGAAAGGTGCGAC ((((((....)))..)))     -13 kcal/mol
31  GGAATCCCGAAAGGGTCC (((..(((....))))))   -13.2 kcal/mol
32          GGTTAGAAATAACC (((((....)))))   -16.4 kcal/mol
33      GATCCCAGCGGGGATC ((((((....))))))   -34.9 kcal/mol
34  GGGGTCGAAAGACCGCCC ((((((....)))..)))   -11.3 kcal/mol
35  GACCTCGGAAACGAAGTC (((.(((....))).)))   -24.9 kcal/mol
36  GCGGCAGGAAACTACCGC ((((.((....)).))))   -41.2 kcal/mol
37  GATACCGAAAGGTGTATC ((((((....)))..)))   -14.8 kcal/mol
38  GCCGCTGGAAACAGCGAC (.(((((....))))).)   -13.9 kcal/mol
39    GTTAGCGAAAGCTAAAC ((((((....))).)))   -13.7 kcal/mol
40  GTATCACGAAAGTGCTAC (((.(((....))).)))   -22.7 kcal/mol
41  CGTGCGGAAACGCAAACG ((((((....)))..)))   -19.9 kcal/mol
42      GTATCAGAAATGATAC ((((((....))))))   -31.6 kcal/mol
43      GCAGGGGAAACCCTGC ((((((....))))))   -34.9 kcal/mol
44  GTTCTGCCGAAAGGCAAC (((..(((....))))))   -7.25 kcal/mol
45  GCCCTCGAAAGAGGTGGC ((((((....)))..)))   -17.7 kcal/mol
46  GCAGATGGAAACATCTAC (.(((((....))))).)   -19.1 kcal/mol
47  GACCACACGAAAGTGGTC (((..(((....))))))   -30.9 kcal/mol
48  GGCGACACGAAAGTGGCC (((..(((....))))))   -15.1 kcal/mol
49  GGGAGCACGAAAGTGCCC (((..(((....))))))   -10.6 kcal/mol
50      GATCATGTTCATGATC ((((((....))))))   -43.1 kcal/mol
